Attribution: ChEMBL document CHEMBL4229425

Listing: fold induction of selected molecules
Target: CYP1A2 (induction through the aryl hydrocarbon receptor, AhR) (Homo sapiens, UniProt P35869)
Sequence (P35869 whole entry): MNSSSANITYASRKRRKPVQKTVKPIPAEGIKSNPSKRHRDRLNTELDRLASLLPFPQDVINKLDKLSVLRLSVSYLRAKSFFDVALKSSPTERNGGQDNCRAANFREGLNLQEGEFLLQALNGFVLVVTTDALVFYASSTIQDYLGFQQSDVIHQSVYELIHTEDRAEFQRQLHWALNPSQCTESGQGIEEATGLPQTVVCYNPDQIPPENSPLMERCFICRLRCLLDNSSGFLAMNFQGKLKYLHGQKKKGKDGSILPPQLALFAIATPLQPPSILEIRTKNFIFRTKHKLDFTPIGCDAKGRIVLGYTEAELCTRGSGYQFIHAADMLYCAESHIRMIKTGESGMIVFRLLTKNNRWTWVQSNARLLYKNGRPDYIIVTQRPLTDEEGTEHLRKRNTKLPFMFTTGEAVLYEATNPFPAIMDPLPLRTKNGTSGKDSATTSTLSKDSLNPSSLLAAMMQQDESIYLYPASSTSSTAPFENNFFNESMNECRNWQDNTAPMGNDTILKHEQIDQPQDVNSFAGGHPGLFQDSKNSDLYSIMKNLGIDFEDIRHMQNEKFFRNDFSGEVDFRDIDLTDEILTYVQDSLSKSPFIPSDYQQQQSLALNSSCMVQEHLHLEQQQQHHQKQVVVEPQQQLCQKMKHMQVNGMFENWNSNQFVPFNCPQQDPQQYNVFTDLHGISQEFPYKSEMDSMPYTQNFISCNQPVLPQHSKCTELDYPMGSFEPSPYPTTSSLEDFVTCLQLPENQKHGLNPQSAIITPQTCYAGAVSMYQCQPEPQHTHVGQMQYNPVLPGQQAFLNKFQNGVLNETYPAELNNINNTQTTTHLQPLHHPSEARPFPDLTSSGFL
Experiment: Activation of human AhR assessed as induction of CYP1A2 relative to control
Format: ADME
Settings: read-out: FC
observed_property: fold induction

Cn1nc(C2CC2)c2ccc(Nc3n[nH]c4cccnc34)cc21 | 2.3
c1cnc2c(Nc3ccc4c(C5CC5)n[nH]c4c3)n[nH]c2c1 | 13.5
Cc1nn(C)c2cc(Nc3n[nH]c4cccnc34)ccc12 | 25
Cn1ncc2cc(Nc3n[nH]c4cccnc34)ccc21 | 28
Cn1ncc2ccc(Nc3n[nH]c4cccnc34)cc21 | 154
Cn1nc(C2CC2)c2ccc(Nc3n[nH]c4nccnc34)cc21 | 2.3
Cn1nc(C2CC2)c2ccc(Nc3n[nH]c4ncccc34)cc21 | 2.6
